Please provide measured apparent KD of MS2 coat protein for the entries that follow.
- System: MS2 coat protein
- measurementProtocol: apparent KD of MS2 coat protein; higher = weaker reporter binding
- conditionContext: Eterna round: R107; input ligand: arginine 13.2 mM
The answer consists of two parts: a number and, after it, its unit.

Check out these entries, answers already filled in.
orderedResidues: AUUAAUAGUUGUGAUACCAGACGAACAUGAGGAUCACCCAUGUAACUUUUAGGUGUUGUAGUCCCUUGGCAGCACUAUUUAGUUA [JR_SSTheophyB_Sub014]
targetEntity: MS2 coat protein
recordedEndpoint: apparent KD of MS2 coat protein
result: 0.0293 µM

orderedResidues: UGACAUUGCUCAGAUACCAGACAUGAGGAUCACCCAUGUGCCAAACGUACAAUAAUAAAUGUCCCUUGGCAGCUGAGCAAUGUCU [TheoBX 14 #MS2Left #Theo2]
targetEntity: MS2 coat protein
recordedEndpoint: apparent KD of MS2 coat protein
result: 0.0134 µM

orderedResidues: CGUGGUUGAGAUGGGCCUCUGAUAAGUCUGCGAGGACCGGUACGGCCGCCACUCGAGGACAUGAGGAUCACCCAUGUACUUCGCG [Vequar]
targetEntity: MS2 coat protein
recordedEndpoint: apparent KD of MS2 coat protein
result: 0.0411 µM

orderedResidues: GUGCGGUUUGAUGAUACCAGAUGUGGUGGGAACAUGAGGAUCACCCAUGUUGUGAAACAGGUCCCUUGGCAGCAUGAGUGAGCUU [TheoB-ms2@32-1]
targetEntity: MS2 coat protein
recordedEndpoint: apparent KD of MS2 coat protein
result: 0.0973 µM

orderedResidues: UAUUUUGGGCGCGAGCCCGGGAUAAUUGAUACCAGUGAAGAAGAGCGCCCUUGGCAGCGAAUCCUAACAUGAGGAUCACCCAUGU [5.Q]
targetEntity: MS2 coat protein
recordedEndpoint: apparent KD of MS2 coat protein
result: 0.0525 µM

Record apparent KD of MS2 coat protein for all entries; do not skip any.
1. UAUAUAUAGGGAAGGAGCGGGAACAUGAGGAUCACCCAUGUACAUGAGGAUCACCCAUGUACCCAGGUAGGUCGCCCAUAUAUAU [Exclusion - Arginine B]
2. UGUAUGGACUGAAGGAGCGGGUAAUAAACCUGAGGAUCACCCAGGUAAUAGGCGAAAGCCGCCCAGGUAGGUCGCAGUCCAUACU
3. ACAUGAGGAUCACCCAUGUUAAGCAGGGUGCGAGGACCGGUACGGCCGCCACUCGGACAUUAUUACGAGUGAAUGGUAACGAUGU [#14 Exclusion Tryptophan A]
4. AUCAUCAGUUCGGCCGCCACUGUUUGGCACAGUUGUAUCGUACAUGAGGAUCACCCAUGUCACCACAGGACCGGGAACGCCGUCG [theeternabot_exclusion_MS2_Trp_B_1]
5. AGAGUCAGACAAAAGUCUGGCUCAGCCGAAGGAGCGUCCGAAAGGACAGGUAGGUCGCGGUUGCAUGAGGAUCACCCAUGUUCCU [ArgAS 30 #OpenEnded #AlternativeMS2]
6. CAAACAUGAGGAUCACCCAUGUAAACCGAAGGAGCGACGCAUAAGUCAGGUAGGUCGCGGAAGAUAAAAUAGAACACUGGGCACA [Same State Arginine A GF1]

Response:
1: 0.0907 µM; 2: 0.0132 µM; 3: 0.0233 µM; 4: 0.0163 µM; 5: 0.0767 µM; 6: 0.0182 µM

List reported apparent KD of MS2 coat protein for each of these sequences:
1. UAUAUAGAAGGAUGUCAUAUAGAUGCAGAAGGAGCGUAGGAAACUACAGGUAGGUCGCUGAGGUACAUGAGGAUCACCCAUGUAG [SSArg A #17 Slice of Pi]
2. AUACAUGAGGAUCACCCAUGUUAUAGUGAAGGAGCGACAUUUAGGUCAGGUAGGUCGCACUAUUGAAUUAUUAUCCUUAUUUCUU [JR_ExcArginiA_Sub020]
3. UAGACGGCCGGAAGGAGCGGUACAUGAGGAUCACCCAUGUAUCCCUGGGCAUCCGUAGUGUGCCAGGUAGGUCGCCGGUUGCGGG [XArg-B21]
4. ACUCGAGGUGGAAGGAGCGGGAGACAUGAGCAUCACAUGAGGAUCACCCAUGUAGGAUCAUCCCAGGUAGGUCGCCAUGUCGAAA [avtamullin]
5. ACGAUAGGACCUGAGGAUCACCCUGGUGAUACCAGCCUGGAAACAGGCCCUUGGCAGCACAAAUACUCCAAUAACCUAUCGAAUA [TheoAX 13 #MicroSwitchBubble #AlternativeMS2]
6. AGAUUACAUGUUUUAAUACGGAAAACUGAUACCAGUGUAUCUAUUCACCCUUGGCAGCAGCAACAUGAGGAUCACCCAUGUAUUA [JR_SSTheophyA_Sub016]
7. GAACAACAUGAGGAUCACCCAUGUCAGGAUACCAGUCGAAAGUCAGACCCUUGGCAGCCUAUCACUCAGCAAAUAGAUAGUACAA [theeternabot_sameState_MS2_Theo_A_12]
8. UGAUCCUACAGAGAUACCAGUGCCACUGAGUGACCAGACACAUGAGGAUCACCCAUGUAACACCCUUGGCAGCUCAACUAGAGGG [Same State Theophylline B GF18]

Response:
0.0326 µM
0.0161 µM
0.0153 µM
0.105 µM
0.245 µM
0.0179 µM
0.0147 µM
0.0168 µM

Value sought for every listed sequence: apparent KD of MS2 coat protein.
1. GCCAGUCAUAGCAGGGCAAAUAUACUCGAAGGAGCGUCAUAGUAGGCAGGUAGGUCGCGAGACAUGAGGAUCACCCAUGUAGAGA [fffmullin]
2. GAAUAAGAAUCGGCCGCCACUCACAUGAGGAUCACCCAUGUACAUGAGGAACAUGAAAAUCACCCGAGGACCGGGAUAUAUGUUC [Excluion - Tryptophan B #1]
3. AGGAAAACAUGAGCAAAGCUCAUGUGCGAAGGAGCGGCGGAAACGCCAGGUAGGUCGCGCACAUGAGCAUCAGCCAUGUGUAUCA [Omei Arginine B SS A v4]
4. ACCGAAAGCUCACAUGAGGAUCACCCAUGUCGAGGACCGGUACGGCCGCCACUCGGCAAAUAUAAGGGUGGACGCGUCUCUGCGU [Soramasoso]

Response:
0.0302 µM
0.0311 µM
0.0395 µM
0.0354 µM

---

- Tested on: MS2 coat protein
- measurementProtocol: apparent KD of MS2 coat protein; designed switch direction (-1 OFF switch, 1 ON switch): -1; higher = weaker reporter binding
- conditionContext: input ligand: none
The threshold is inclusive: apparent KD of MS2 coat protein of exactly 0.05 µM counts as Condition met; values below receive Condition not met.

Here's what some known entries look like.
orderedResidues: CCCUCAAGCGAGGAUAUAAAUGCGCAUUCGCGGUUAGAAGGCGCUACAUGAGGAUCACCCAUGUAAUUAAAUGG [jl-ex6-4.51 ViennaUCT mod] (Eterna round: R97, puzzle: Exclusion 6)
targetEntity: MS2 coat protein
label: Condition met
--
orderedResidues: AUGUGCACGCUGCGAUCCUACAUGAGGAUCACCCAUGUGGUCUGGUGGCGUGGGUCACCGGACUUGGCUCGUCUUGA [salish99_S_TOV1_R5_067] (Eterna round: R97, puzzle: Sensor, turn-off variant 1)
targetEntity: MS2 coat protein
label: Condition met
--
orderedResidues: GUCCCGGAAGGAUAUGCAGAGCACGAUCCCGUUAAAGGGCCACAUGAGGAUCACCCAUGUAGAAGGUCCAGGGC [EX2 B.21] (Eterna round: R97, puzzle: Exclusion 2)
targetEntity: MS2 coat protein
label: Condition not met
--
orderedResidues: GUCCUACAUGAGGAUCACCCAUGUGAGGAUAUGCGAUUAGCUGCUAGGUAGUUAGUAUGUAGAAGGCGCAUGAA [EX1 #77] (Eterna round: R97, puzzle: Exclusion 1)
targetEntity: MS2 coat protein
label: Condition not met

Turning now to a further sequence:
Request: Confirm if apparent KD of MS2 coat protein reported for the sequence ACAUGUCAUUGAGGAUAUUGCAAACAUGAGGAUCACCCAUGUAUACGGAUGCUCUUACGUGGGUUCGAGAAGGCGAUGUACAUU [Ex NG2 #92] (Eterna round: R96, puzzle: Exclusion NG 2) is 0.05 µM or above.
Response: Condition met

---

- System: K4 kissing-loop RNA reporter;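 note: bound reporter read as fluorescence of individual clusters on recovered sequencing chips by microscopy, with normalized cluster intensities fitted with a binding model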
- measurementProtocol: apparent KD of K4 kissing-loop reporter; higher = weaker reporter binding
- conditionContext: Eterna round: R107; input ligand: FMN 200 uM
# if value of apparent KD of K4 kissing-loop reporter reaches 200 nM, tag MET; if it stays below, tag NOT MET

orderedResidues: CGUGCCCGGCCGGAUACCAGUGACCCGCUGGGAACCGCGGGCCCAGAGUGAUGUUCGGGACACCCUUGGCAGCCGCCUGGGCGGC [#2 Same State - Theophylline B Attempt #13 (HarryS)]
label: MET

For the next question, use this sequence.
Request: Say whether CCAUCGCUAUUCGAUACCAGCUAAAUAUAAUAUAACCAGUGAUGUUGGUAUAUAAAUAUAAGCCCUUGGCAGCGAAUAGUGAUGG [Theophylline B K4 30] shows apparent KD of K4 kissing-loop reporter of 200 nM or more.
Response: NOT MET

From: the supplement of paper PMC9170038
